target: Ubiquitin carboxyl-terminal hydrolase 8 (Homo sapiens); assay: Inhibition of N-terminal His6-tagged USP8 (unknown origin) catalytic domain (734 to 1110 residues) expressed in Escherichia coli BL21 (DE3) cells assessed as deubiquitinating activity using ubiquitin-rhodamine -110 as substrate incubated for 30 mins followed by substrate addition measured after 30 mins by ubiquitin-rhodamine-110 based fluorometric assay
Sequence (P40818 whole entry, the tested form may be a part): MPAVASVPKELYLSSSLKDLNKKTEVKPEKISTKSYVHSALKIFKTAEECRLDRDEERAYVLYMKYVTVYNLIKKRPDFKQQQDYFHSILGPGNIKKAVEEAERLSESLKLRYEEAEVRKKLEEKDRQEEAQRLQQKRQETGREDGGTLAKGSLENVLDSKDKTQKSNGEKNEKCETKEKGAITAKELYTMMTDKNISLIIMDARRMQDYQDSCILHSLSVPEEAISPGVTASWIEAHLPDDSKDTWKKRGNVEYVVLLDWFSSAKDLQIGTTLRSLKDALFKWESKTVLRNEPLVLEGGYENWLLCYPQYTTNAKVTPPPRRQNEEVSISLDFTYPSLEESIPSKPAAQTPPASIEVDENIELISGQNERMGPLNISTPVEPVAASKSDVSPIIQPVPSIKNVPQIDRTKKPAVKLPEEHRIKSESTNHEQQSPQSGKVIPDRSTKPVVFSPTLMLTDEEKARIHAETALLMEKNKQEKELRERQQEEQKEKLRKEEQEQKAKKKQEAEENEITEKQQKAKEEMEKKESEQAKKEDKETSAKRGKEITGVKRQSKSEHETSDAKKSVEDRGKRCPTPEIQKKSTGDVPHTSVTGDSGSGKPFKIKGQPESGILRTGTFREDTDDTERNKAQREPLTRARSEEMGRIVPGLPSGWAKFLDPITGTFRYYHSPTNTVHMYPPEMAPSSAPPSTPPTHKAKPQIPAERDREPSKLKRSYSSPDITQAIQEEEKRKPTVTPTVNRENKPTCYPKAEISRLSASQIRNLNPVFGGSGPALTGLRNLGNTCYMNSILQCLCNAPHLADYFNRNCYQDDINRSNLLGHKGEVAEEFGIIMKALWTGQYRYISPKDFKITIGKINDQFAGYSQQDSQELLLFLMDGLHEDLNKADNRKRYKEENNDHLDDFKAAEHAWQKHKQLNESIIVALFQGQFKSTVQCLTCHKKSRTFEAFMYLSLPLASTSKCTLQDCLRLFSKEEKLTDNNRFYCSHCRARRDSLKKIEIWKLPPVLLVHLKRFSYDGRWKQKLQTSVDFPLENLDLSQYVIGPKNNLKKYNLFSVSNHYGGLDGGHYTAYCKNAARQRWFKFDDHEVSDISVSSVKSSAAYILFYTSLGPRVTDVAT
Consider the following compounds; for each one, report its pIC50.
Numbers only, as −log10 of the molar value.

# example entries with known answers
{"columns": ["smiles-structure", "pIC50"],
 "data": [
  ["COc1c(O)cc(O)c2c(=O)cc(-c3ccc(N4CCCC4)cc3)oc12", 4.79],
  ["Cc1n[nH]c(C)c1Oc1c(O)cc(O)c2c(=O)cc(-c3ccc(N4CCN(C(=O)c5ccco5)CC4)cc3)oc12", 5.29],
  ["COc1c(O)cc(O)c2c(=O)cc(-c3ccc(N4CCN(C)CC4)cc3)oc12", 4.78],
  ["Cc1n[nH]c(C)c1Oc1c(O)cc(O)c2c(=O)cc(-c3ccc(N4CCN(c5ccccn5)CC4)cc3)oc12", 5.92]
]}

Let's switch to this compound now.
**Q:** Form field: reported pIC50 of `O=c1cc(-c2ccc(N3CCCNCC3)cc2)oc2c(OC3CCCCC3)c(O)cc(O)c12`
**A:** 4.79

Values were extracted from ChEMBL document CHEMBL5131570.
